# target_or_test_system: T1, interleukin 18 binding protein (IL-18BP) (UniProt O95998 31-194); note: unit not given here
# T1 sequence (looked up): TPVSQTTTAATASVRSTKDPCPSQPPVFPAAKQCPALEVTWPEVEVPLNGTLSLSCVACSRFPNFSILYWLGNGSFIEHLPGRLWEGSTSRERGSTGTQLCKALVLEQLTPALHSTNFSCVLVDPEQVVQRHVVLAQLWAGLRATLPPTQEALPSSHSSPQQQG
# assay_comment: cell-based or functional assay
property_name: HEK-Blue activity, +100 nM BP, DF-10000

| binder | reported_value |
| --- | --- |
| IL-18 variant K53G, S55V, R104Y, H109N (ligand) YFGKLESKLSVIRNLNDQVLFIDQGNRPLFEDMTDSDMRDNAPRTIFIISMYGDVQPRGMAVTISVKSEKISTLSSENKIISFKEMNPPDNIKDTKSDIIFFQYSVPGNDNKMQFESSSYEGYFLASEKERDLFKLILKKEDELGDRSIMFTVQNED | 0.11 |
| IL-18 variant K53Y, S55Y, Q56H (ligand) YFGKLESKLSVIRNLNDQVLFIDQGNRPLFEDMTDSDMRDNAPRTIFIISMYYDYHPRGMAVTISVKSEKISTLSSENKIISFKEMNPPDNIKDTKSDIIFFQRSVPGHDNKMQFESSSYEGYFLASEKERDLFKLILKKEDELGDRSIMFTVQNED | 0.22 |
| IL-18 variant S7Y, K53H, S55M (ligand) YFGKLEYKLSVIRNLNDQVLFIDQGNRPLFEDMTDSDMRDNAPRTIFIISMYHDMQPRGMAVTISVKSEKISTLSSENKIISFKEMNPPDNIKDTKSDIIFFQRSVPGHDNKMQFESSSYEGYFLASEKERDLFKLILKKEDELGDRSIMFTVQNED | 0.16 |
| IL-18 variant T34L, S36V, D40A, N41S, K53G, S55W (ligand) YFGKLESKLSVIRNLNDQVLFIDQGNRPLFEDMLDVDMRASAPRTIFIISMYGDWQPRGMAVTISVKSEKISTLSSENKIISFKEMNPPDNIKDTKSDIIFFQRSVPGHDNKMQFESSSYEGYFLASEKERDLFKLILKKEDELGDRSIMFTVQNED | 0.12 |
| IL-18 variant K53D, S55Q, P107M (ligand) YFGKLESKLSVIRNLNDQVLFIDQGNRPLFEDMTDSDMRDNAPRTIFIISMYDDQQPRGMAVTISVKSEKISTLSSENKIISFKEMNPPDNIKDTKSDIIFFQRSVMGHDNKMQFESSSYEGYFLASEKERDLFKLILKKEDELGDRSIMFTVQNED | 0.22 |
| IL-18 variant K53V, S55Q (ligand) YFGKLESKLSVIRNLNDQVLFIDQGNRPLFEDMTDSDMRDNAPRTIFIISMYVDQQPRGMAVTISVKSEKISTLSSENKIISFKEMNPPDNIKDTKSDIIFFQRSVPGHDNKMQFESSSYEGYFLASEKERDLFKLILKKEDELGDRSIMFTVQNED | 0.2 |
| IL-18 variant K53N, S55Y (ligand) YFGKLESKLSVIRNLNDQVLFIDQGNRPLFEDMTDSDMRDNAPRTIFIISMYNDYQPRGMAVTISVKSEKISTLSSENKIISFKEMNPPDNIKDTKSDIIFFQRSVPGHDNKMQFESSSYEGYFLASEKERDLFKLILKKEDELGDRSIMFTVQNED | 0.14 |
| IL-18 variant K53S, S55F, T63S, R104K, H109Y (ligand) YFGKLESKLSVIRNLNDQVLFIDQGNRPLFEDMTDSDMRDNAPRTIFIISMYSDFQPRGMAVSISVKSEKISTLSSENKIISFKEMNPPDNIKDTKSDIIFFQKSVPGYDNKMQFESSSYEGYFLASEKERDLFKLILKKEDELGDRSIMFTVQNED | 0.13 |
| IL-18 variant T34E, S36P, D40A, N41G, K53T, S55R (ligand) YFGKLESKLSVIRNLNDQVLFIDQGNRPLFEDMEDPDMRAGAPRTIFIISMYTDRQPRGMAVTISVKSEKISTLSSENKIISFKEMNPPDNIKDTKSDIIFFQRSVPGHDNKMQFESSSYEGYFLASEKERDLFKLILKKEDELGDRSIMFTVQNED | 0.1 |
| IL-18 variant K53N, S55H, H109F (ligand) YFGKLESKLSVIRNLNDQVLFIDQGNRPLFEDMTDSDMRDNAPRTIFIISMYNDHQPRGMAVTISVKSEKISTLSSENKIISFKEMNPPDNIKDTKSDIIFFQRSVPGFDNKMQFESSSYEGYFLASEKERDLFKLILKKEDELGDRSIMFTVQNED | 0.11 |
| IL-18 variant L9V, K53H, S55M (ligand) YFGKLESKVSVIRNLNDQVLFIDQGNRPLFEDMTDSDMRDNAPRTIFIISMYHDMQPRGMAVTISVKSEKISTLSSENKIISFKEMNPPDNIKDTKSDIIFFQRSVPGHDNKMQFESSSYEGYFLASEKERDLFKLILKKEDELGDRSIMFTVQNED | 0.16 |
| IL-18 variant K53L, S55E (ligand) YFGKLESKLSVIRNLNDQVLFIDQGNRPLFEDMTDSDMRDNAPRTIFIISMYLDEQPRGMAVTISVKSEKISTLSSENKIISFKEMNPPDNIKDTKSDIIFFQRSVPGHDNKMQFESSSYEGYFLASEKERDLFKLILKKEDELGDRSIMFTVQNED | 0.12 |
| IL-18 variant K53H, S55H, N87D, H109I (ligand) YFGKLESKLSVIRNLNDQVLFIDQGNRPLFEDMTDSDMRDNAPRTIFIISMYHDHQPRGMAVTISVKSEKISTLSSENKIISFKEMDPPDNIKDTKSDIIFFQRSVPGIDNKMQFESSSYEGYFLASEKERDLFKLILKKEDELGDRSIMFTVQNED | 0.1 |
